- experimental system: human NK1R (Homo sapiens)
- protocol: biochemical
- protocol conditions: displacement of 125I-substance P; human NK1R in COS or CHO cells
pIC50: −log10 of the molar value. Structures can show the parent of a compound that is named as a salt.
measured parameter: pIC50

{"compound": "Cc1cc(C)cc(COCC(NC(=O)c2ccccc2)C(c2ccccc2)c2ccccc2)c1 (stereo not shown) [Example 40]", "pIC50": 6.24}

1 = CC(N[C@H](COCc1cc(C(F)(F)F)cc(C(F)(F)F)c1)C(c1ccccc1)c1ccccc1)C(N)=O (single isomer, unassigned) [58 (diastereomer A)]
2 = Cc1cc(C)cc(COC[C@@H](C(c2ccccc2)c2ccccc2)N(C)C)c1 [Example 56, tosylate salt]
3 = NC(COCc1cccc(I)c1)C(c1ccccc1)c1ccccc1 (stereo not shown) [Example 26, oxalate salt]
[ask] Hey, quick one: sort these by pIC50, largest value first please. Lab note: final answer is the ordered label list.
[reply] 1, 2, 3
(1: 9.40, 2: 7.74, 3: 6.85)

====

- experimental system: human NK1R (Homo sapiens, UniProt P25103)
- Sequence (P25103 whole entry): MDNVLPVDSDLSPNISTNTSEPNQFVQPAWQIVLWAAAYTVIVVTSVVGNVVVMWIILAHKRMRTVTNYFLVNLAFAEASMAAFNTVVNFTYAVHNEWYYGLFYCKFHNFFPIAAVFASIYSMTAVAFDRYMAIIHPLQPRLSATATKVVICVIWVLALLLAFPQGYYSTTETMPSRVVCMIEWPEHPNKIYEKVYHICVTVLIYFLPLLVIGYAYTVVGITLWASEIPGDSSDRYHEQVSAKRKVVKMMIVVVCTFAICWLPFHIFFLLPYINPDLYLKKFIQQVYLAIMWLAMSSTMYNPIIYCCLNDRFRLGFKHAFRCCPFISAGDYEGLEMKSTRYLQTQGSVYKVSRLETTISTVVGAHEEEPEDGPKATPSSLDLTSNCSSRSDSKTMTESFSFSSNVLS
- protocol: biochemical
- protocol conditions: displacement of 125I-substance P; human NK1R in COS or CHO cells
pIC50: −log10 of the molar value. Counter-ions that a name gives are not always drawn.
measured parameter: pIC50

{"compound": "O=C(CNC(COCc1cc(C(F)(F)F)cc(C(F)(F)F)c1)C(c1ccccc1)c1ccccc1)NCCO (stereo not shown)", "pIC50": 9.00}
{"compound": "C=CCNC(COCc1cc(C)cc(C)c1)C(c1ccccc1)c1ccccc1 (stereo not shown) [Example 10, oxalate salt]", "pIC50": 7.15}
{"compound": "CC(NC(COCc1cc(C(F)(F)F)cc(C(F)(F)F)c1)C(c1ccccc1)c1ccccc1)C(N)=O (single isomer, unassigned) [41 (diastereomer A), oxalate salt]", "pIC50": 9.40}
{"compound": "NC(COCc1cc(Br)cc(Br)c1)C(c1ccccc1)c1ccccc1 (stereo not shown) [Example 32, oxalate salt]", "pIC50": 7.52}

1 = COc1cccc(C(Cc2ccccc2)C(N)COCc2cc(C(F)(F)F)cc(C(F)(F)F)c2)c1 (mixture of isomers) [70 (mixture of diastereomers)]
2 = Cc1cc(C)cc(COCC(C(c2ccccc2)c2ccccc2)N(C)CC(N)=O)c1 (stereo not shown) [Example 36, oxalate salt]
[ask] Between these two entries, 1 and 2 , state which has the higher pIC50. Field: selected label. Fill in the label of the entry you choose.
[reply] 2
(2: 8.15, 1: 6.80)

====

- experimental system: UniProtKB P25103
- protocol: biochemical
- protocol conditions: displacement of 125I-substance P; human NK1R in COS or CHO cells
Counter-ions that a name gives are not always drawn.
measured parameter: IC50 (nM)

In the examples that follow, each entry is paired with its recorded IC50.
{"compound": "NC(COCc1cccc([N+](=O)[O-])c1)C(c1ccccc1)c1ccccc1 (centres unmarked) [Example 24, oxalate salt]", "observed measurement": 400}
{"compound": "Cc1cc(C)cc(COCC(C(c2ccccc2)c2ccccc2)[N+](C)(C)C)c1 (centres unmarked)", "observed measurement": 19}
{"compound": "NC(COCc1cccc(Br)c1)C(c1ccccc1)c1ccccc1 (centres unmarked) [Example 31, oxalate salt]", "observed measurement": 200}

a = CC(=O)N(C)C(COCc1cc(C)cc(C)c1)C(c1ccccc1)c1ccccc1 (centres unmarked)
b = COCCNC(=O)CNC(COCc1cc(C(F)(F)F)cc(C(F)(F)F)c1)C(c1ccccc1)c1ccccc1 (centres unmarked)
[ask] Lab note: record which item had the higher IC50, a or b . Your choice should be expressed through its label.
[reply] a

====

- experimental system: human NK1R (Homo sapiens)
- protocol: biochemical
- protocol conditions: displacement of 125I-substance P; human NK1R in COS or CHO cells
Counter-ions that a name gives are not always drawn.
measured parameter: IC50 (nM)

Completed entries (count: 4):
{"molecule": "Cc1cc(C)cc(COCC(NCC(=O)NCc2ccccc2)C(c2ccccc2)c2ccccc2)c1 (stereo not shown) [Example 47, oxalate salt]", "measured parameter": "IC50", "units label": "nM", "observed measurement": 15}
{"molecule": "CC(N[C@H](COCc1cc(C(F)(F)F)cc(C(F)(F)F)c1)C(c1ccccc1)c1ccccc1)C(N)=O (single isomer, unassigned) [58 (diastereomer B)]", "measured parameter": "IC50", "units label": "nM", "observed measurement": 0.5}
{"molecule": "NC(COCc1cc(Cl)cc(Cl)c1)C(c1ccccc1)c1ccccc1 (stereo not shown) [Example 18, tosylate salt]", "measured parameter": "IC50", "units label": "nM", "observed measurement": 22}
{"molecule": "CNC(=O)CN(C)C(COCc1cc(C(F)(F)F)cc(C(F)(F)F)c1)C(c1ccccc1)c1ccccc1 (stereo not shown) [Example 54, monohydrate]", "measured parameter": "IC50", "units label": "nM", "observed measurement": 2}

P = NCC(=O)NC(COCc1cc(C(F)(F)F)cc(C(F)(F)F)c1)C(c1ccccc1)c1ccccc1 (stereo not shown) [Example 61, oxalate salt hemihydrate]
Q = CNC(COCc1cc(C)cc(C)c1)C(c1ccccc1)c1ccccc1 (stereo not shown) [Example 6, oxalate salt]
R = NC(=O)CN[C@H](COCc1cc(C(F)(F)F)cc(C(F)(F)F)c1)C(c1ccccc1)c1ccccc1 [Example 57, oxalate salt]
[ask] Let's sort these by IC50, smallest first. Go ahead? Lab note: final answer is the ordered label list.
[reply] R, Q, P
(R: 0.8 nM, Q: 10 nM, P: 30 nM)

====

- experimental system: UniProtKB P25103
- protocol: biochemical
- protocol conditions: displacement of 125I-substance P; human NK1R in COS or CHO cells
Structures can show the parent of a compound that is named as a salt.
measured parameter: IC50 (µM)

Below, each entry is followed by its recorded IC50 result.
{"molecule": "Cc1cc(C)cc(COCC(C(c2ccccc2)c2ccccc2)N2CCCCC2)c1 (centres unmarked) [Example 14, hydrochloride salt]", "units label": "µM", "IC50": 0.07}
{"molecule": "NC(COCc1ccccc1)C(c1ccccc1)c1ccccc1 (centres unmarked) [Example 25, oxalate salt]", "units label": "µM", "IC50": 0.6}
{"molecule": "Cc1cc(C)cc(COC(=O)C(N)C(c2ccccc2)c2ccccc2)c1 (centres unmarked) [Example 5, tosylate salt]", "units label": "µM", "IC50": 0.16}

I = Cc1cc(C)cc(COCC(N)C(c2ccccc2)c2ccccc2)c1 (centres unmarked) [Example 1, tosylate salt]
II = NC(C(=O)NCc1cc(C(F)(F)F)cc(C(F)(F)F)c1)C(c1ccccc1)c1ccccc1 (centres unmarked) [Example 67]
III = COc1cc(COCC(N)C(c2ccccc2)c2ccccc2)cc(OC)c1 (centres unmarked) [Example 27, oxalate salt]
IV = Cc1cc(C)cc(COCC(C(c2ccccc2)c2ccccc2)N(C)C(=O)c2ccccc2)c1 (centres unmarked) [Example 39]
V = Cc1cc(Br)cc(COCC(N)C(c2ccccc2)c2ccccc2)c1 (centres unmarked) [Example 33, oxalate salt]
[ask] Task field, ranking: reported IC50, descending order. // format: requested-order list of labels
[reply] IV, II, III, V, I

====

- experimental system: UniProtKB P25103
- protocol: biochemical
- protocol conditions: displacement of 125I-substance P; human NK1R in COS or CHO cells
pIC50: −log10 of the molar value. Where a name gives a salt, the structure may show the parent alone.
measured parameter: pIC50

Answered cases to consult:
{"molecule": "Cc1cc(C)cc(COC[C@H](C(c2ccccc2)c2ccccc2)N(C)C)c1 [Example 55, Oxalate salt]", "pIC50": 8.70}
{"molecule": "O=C(O)CNC(COCc1cc(C(F)(F)F)cc(C(F)(F)F)c1)C(c1ccccc1)c1ccccc1 (stereo not drawn)", "pIC50": 7.82}
{"molecule": "Cc1cc(CNCC(N)C(c2ccccc2)c2ccccc2)cc(C(F)(F)F)c1 (stereo not drawn) [Example 68, oxalate salt]", "pIC50": 6.40}

a = CNC(=O)NC(COCc1cc(C(F)(F)F)cc(C(F)(F)F)c1)C(c1ccccc1)c1ccccc1 (stereo not drawn)
b = N#CCNC(COCc1cc(C(F)(F)F)cc(C(F)(F)F)c1)C(c1ccccc1)c1ccccc1 (stereo not drawn)
[ask] API: POST /compare with a and b ; response names the item with higher pIC50. Answer by stating the label of the chosen item.
[reply] b

I = CN(C)CC(=O)NC(COCc1cc(C(F)(F)F)cc(C(F)(F)F)c1)C(c1ccccc1)c1ccccc1 (stereo not drawn)
II = CS(=O)(=O)NC(COCc1cc(C(F)(F)F)cc(C(F)(F)F)c1)C(c1ccccc1)c1ccccc1 (stereo not drawn)
III = O=C(CCl)NC(COCc1cc(C(F)(F)F)cc(C(F)(F)F)c1)C(c1ccccc1)c1ccccc1 (stereo not drawn)
[ask] With regard to pIC50, arrange the entries in ascending order, please. # respond with the labels, arranged in the requested order
[reply] I, III, II
(I: 6.70, III: 7.10, II: 7.46)
